Reference for the values: patent US20240239788A1

molecular target: KRAS protein containing G12D mutation (Homo sapiens (Human), UniProt P01116, G12D); test: SOS-catalyzed nucleotide exchange assay (GNE), TR-FRET; format: biochemical; conditions: biotinylated KRAS G12D, SOS and GTP, 60-minute incubation
Sequence (P01116 other isoform, or with tags, fused parts or gaps G12D (already in the parent)): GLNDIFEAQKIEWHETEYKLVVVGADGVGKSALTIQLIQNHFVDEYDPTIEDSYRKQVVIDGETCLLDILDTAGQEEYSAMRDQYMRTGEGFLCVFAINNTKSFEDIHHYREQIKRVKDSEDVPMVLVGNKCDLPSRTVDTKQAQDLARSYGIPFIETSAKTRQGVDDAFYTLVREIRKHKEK
Structures can show the parent of a compound that is named as a salt.
Listed below: IC50 values for each entry.
Report the value in nM with no unit label.

Lab note: measured IC50 of Nc1cc2cccc(Cl)c2c(-c2c(F)cc3c(N4C[C@H]5CC[C@@H](C4)N5)nc(OC[C@@]45CCCN4C[C@H](F)C5)nc3c2F)n1 [Ex. 132] was 347

What the record says about C#Cc1cccc2cc(N)nc(-c3c(F)cc4c(N5CC6CCC(C5)N6)nc(OC[C@@]56CCCN5C[C@H](F)C6)nc4c3F)c12 (single isomer, unassigned) [Ex. 148b] : IC50 is 751

Per the record, Oc1cc(-c2c(Cl)cc3c(N4CC5CCC(C4)N5)nc(OCC4CNC4)nc3c2F)c2ccccc2c1 [Example 109, TFA] has IC50 of 2680
